assaySystem: TBK1 (Homo sapiens (Human))
Sequence (Q9UHD2 whole entry): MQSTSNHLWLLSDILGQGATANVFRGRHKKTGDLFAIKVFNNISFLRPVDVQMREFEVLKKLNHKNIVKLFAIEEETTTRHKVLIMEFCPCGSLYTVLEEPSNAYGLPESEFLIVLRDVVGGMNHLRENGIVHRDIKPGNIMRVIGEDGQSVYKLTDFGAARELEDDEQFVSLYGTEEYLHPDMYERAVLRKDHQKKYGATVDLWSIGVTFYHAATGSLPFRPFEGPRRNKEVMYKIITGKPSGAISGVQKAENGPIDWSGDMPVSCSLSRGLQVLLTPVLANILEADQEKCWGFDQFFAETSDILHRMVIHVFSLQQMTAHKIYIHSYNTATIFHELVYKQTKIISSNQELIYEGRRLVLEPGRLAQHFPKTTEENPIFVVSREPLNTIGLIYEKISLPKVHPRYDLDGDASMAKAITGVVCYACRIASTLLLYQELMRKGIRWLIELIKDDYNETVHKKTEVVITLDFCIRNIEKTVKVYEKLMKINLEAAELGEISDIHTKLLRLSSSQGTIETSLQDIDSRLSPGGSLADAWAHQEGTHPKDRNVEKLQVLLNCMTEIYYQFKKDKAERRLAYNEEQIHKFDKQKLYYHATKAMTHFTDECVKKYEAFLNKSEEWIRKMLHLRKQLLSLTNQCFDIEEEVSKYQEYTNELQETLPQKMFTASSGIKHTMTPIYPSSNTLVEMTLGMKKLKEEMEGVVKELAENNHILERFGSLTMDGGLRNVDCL
protocolText: TBK1 low ATP kinase assay (in vitro assay 1)
Format: biochemical
conditionDetails: in vitro assay 1, read-out: TBK1 low ATP kinase assay IC50
pIC50: −log10 of the molar value.
measureName: pIC50

Example cases with answers are listed next.
compound | measureName | measuredNumber
COc1c(NCC2CC2)ncnc1-c1ccc2nc(Nc3cc(CN4CCN(C(=O)OC(C)(C)C)CC4)ccn3)[nH]c2c1 [Example 109.01.01] | pIC50 | 8.04
Cc1cc(-c2ccc3nc(Nc4cc(C(C)N5CCN(C(=O)CC6CC6)CC5)ccn4)[nH]c3c2)ncn1 (racemic) [Example 30.02.04] | pIC50 | 8.03
CC(C)Cc1noc(-c2ccc3nc(Nc4cc(CN5CCN(C(=O)C6CC6)CC5)ccn4)[nH]c3c2)n1 [Example 18.02] | pIC50 | 6.81
COc1c(-c2ccc3nc(Nc4cc(C(C)N5CCN(C(=O)C6CC6)CC5)ccn4)[nH]c3c2)ncnc1N1CCC1 (single isomer, unassigned) [Example 111.02] | pIC50 | 9.00

1. CC(c1ccnc(Nc2nc3ccc(-c4cnn(CC5CC5(F)F)c4)cc3[nH]2)c1)N1CCN(C(=O)C2CC2)CC1 (single isomer, unassigned) [Example 55.03]
2. CC(c1ccnc(Nc2nc3ccc(-c4cnn(CC5CCC5)c4)c(F)c3[nH]2)c1)N1CCN(C(=O)C2CC2)CC1 (single isomer, unassigned) [Example 171.03]
Ask | Decide: 1 or 2 , by lowest recorded pIC50. Respond using the label that marks the chosen record.
Reply | 2
(2: 8.55, 1: 9.25)
